Experiment: Bioavailability in rat
Format: ADME, organism-based
Conditions: in vivo
quantity: bioavailability (%)
Give just the number in %; leave the unit off.

Identify bioavailability associated with the compound "O=C(O)[C@@H](CC1CCC1)N1C[C@H](CN2CCC(c3cnc4c(Cl)cc(Cl)cn34)CC2)[C@@H](c2cccc(F)c2)C1"
39

----------
Assay: Oral bioavailability in rat
Format: ADME, organism-based
Conditions: in vivo
quantity: bioavailability

Identify bioavailability associated with the molecule "O=C(O)[C@@H](C1CCCCC1)N1C[C@H](CN2CCC(n3cnc4ccccc43)CC2)[C@@H](c2ccccc2)C1"
< 2%

Continue with the next molecule.
Identify bioavailability associated with the molecule "O=C(O)[C@@H](C1CCCCC1)N1C[C@H](CN2CCC(CCCn3cnc4ccccc43)CC2)[C@@H](c2ccccc2)C1"
< 2%

----------
Test: Plasma clearance in rat
Type: ADME, organism-based
Conditions: read-out: Clp
Parameter clearance: see the listing below.
Give just the number in mL/min/kg; leave the unit off.

Examples from the recorded data:
Identify clearance associated with the molecule "O=C(O)[C@@H](CC1CCC1)N1C[C@H](CN2CCC(c3cnc4ccc(-c5ccccc5)cn34)CC2)[C@@H](c2cccc(F)c2)C1"
83

Identify clearance associated with the molecule "O=C(O)[C@@H](CC1CCC1)N1C[C@H](CN2CCC(c3cnc4ccc(F)cn34)CC2)[C@@H](c2cccc(F)c2)C1"
19

Identify clearance associated with the molecule "O=C(O)[C@@H](CC1CCC1)N1C[C@H](CN2CCC(c3cnc4ccc([N+](=O)[O-])cn34)CC2)[C@@H](c2cccc(F)c2)C1"
120

Others:
Identify clearance associated with the molecule "O=C(O)[C@@H](CC1CCC1)N1C[C@H](CN2CCC(c3cnc4ccc(C(F)(F)F)cn34)CC2)[C@@H](c2cccc(F)c2)C1"
18

Identify clearance associated with the molecule "CCc1ccn2c(C3CCN(C[C@H]4CN([C@H](CC5CCC5)C(=O)O)C[C@@H]4c4cccc(F)c4)CC3)cnc2c1"
67

Identify clearance associated with the molecule "O=C(O)[C@@H](CC1CCC1)N1C[C@H](CN2CCC(c3cnc4ccccn34)CC2)[C@@H](c2cccc(F)c2)C1"
38

Identify clearance associated with the molecule "O=C(O)[C@@H](CC1CCC1)N1C[C@H](CN2CCC(c3cnc4c(Cl)cc(Cl)cn34)CC2)[C@@H](c2cccc(F)c2)C1"
20

Identify clearance associated with the molecule "O=C(O)[C@@H](CC1CCC1)N1C[C@H](CN2CCC(c3cnc4ccc(Cl)cn34)CC2)[C@@H](c2cccc(F)c2)C1"
16

----------
Assay: Half life in rat
Format: ADME
Details: in vivo
quantity: half-life (h)
Give just the number in h; leave the unit off.

Examples from the recorded data:
Identify half-life associated with the compound "O=C(O)[C@@H](CC1CCC1)N1C[C@H](CN2CCC(c3cnc4ccc(C(F)(F)F)cn34)CC2)[C@@H](c2cccc(F)c2)C1"
0.8

Identify half-life associated with the compound "CCc1ccn2c(C3CCN(C[C@H]4CN([C@H](CC5CCC5)C(=O)O)C[C@@H]4c4cccc(F)c4)CC3)cnc2c1"
2.5

Identify half-life associated with the compound "O=C(O)[C@@H](CC1CCC1)N1C[C@H](CN2CCC(c3cnc4ccc(F)cn34)CC2)[C@@H](c2cccc(F)c2)C1"
0.8

Others:
Identify half-life associated with the compound "O=C(O)[C@@H](CC1CCC1)N1C[C@H](CN2CCC(c3cnc4ccc(-c5ccccc5)cn34)CC2)[C@@H](c2cccc(F)c2)C1"
1.6

----------
Biological target: C-C chemokine receptor type 5 (Homo sapiens)
Experiment: Displacement of [125I]-MIP-1 alpha from human C-C chemokine receptor type 5 expressed on CHO cell membranes
Parameter pIC50: see the listing below.
Keep in mind that pIC50 stands for -log10 of concentration in molar terms.

Examples from the recorded data:
Identify pIC50 associated with the compound "O=C(O)[C@@H](C1CCCCC1)N1C[C@H](CN2CCC(n3cnc4cccnc43)CC2)[C@@H](c2ccccc2)C1"
8.55

Identify pIC50 associated with the compound "O=C(O)[C@@H](CC1CCC1)N1C[C@H](CN2CCC(c3cnc4ccc(Cl)cn34)CC2)[C@@H](c2cccc(F)c2)C1"
9.05

Identify pIC50 associated with the compound "O=C(O)[C@@H](CC1CCC1)N1C[C@H](CN2CCC(c3cnc4ccc(C(F)(F)F)cn34)CC2)[C@@H](c2cccc(F)c2)C1"
9.09

Identify pIC50 associated with the compound "O=C(O)[C@@H](CC1CCC1)N1C[C@H](CN2CCC(c3cnc4ccc([N+](=O)[O-])cn34)CC2)[C@@H](c2cccc(F)c2)C1"
9.22

Identify pIC50 associated with the compound "O=C(O)[C@@H](C1CCCCC1)N1C[C@H](CN2CCC(CCn3cnc4ccccc43)CC2)[C@@H](c2ccccc2)C1"
8.59

Others:
Identify pIC50 associated with the compound "O=C(O)[C@@H](C1CCCCC1)N1C[C@H](CN2CCC(Cn3cnc4ccccc43)CC2)[C@@H](c2ccccc2)C1"
8.20

Identify pIC50 associated with the compound "O=C(O)[C@@H](C1CCCCC1)N1C[C@H](CN2CCC(n3cnc4ncccc43)CC2)[C@@H](c2ccccc2)C1"
7.64

----------
Parameter half-life: see the listing below.
Test: Half life in rat
Type: ADME
Settings: in vivo
Give just the number in min; leave the unit off.

Examples from the recorded data:
Identify half-life associated with the molecule "O=C(O)[C@@H](CC1CCC1)N1C[C@H](CN2CCC(c3cnc4ccc(Cl)cn34)CC2)[C@@H](c2cccc(F)c2)C1"
42

Identify half-life associated with the molecule "O=C(O)[C@@H](CC1CCC1)N1C[C@H](CN2CCC(c3cnc4c(Cl)cc(Cl)cn34)CC2)[C@@H](c2cccc(F)c2)C1"
24

Identify half-life associated with the molecule "O=C(O)[C@@H](CC1CCC1)N1C[C@H](CN2CCC(c3cnc4ccccn34)CC2)[C@@H](c2cccc(F)c2)C1"
126

Continue with the next molecule.
Identify half-life associated with the molecule "O=C(O)[C@@H](CC1CCC1)N1C[C@H](CN2CCC(c3cnc4ccc([N+](=O)[O-])cn34)CC2)[C@@H](c2cccc(F)c2)C1"
12

----------
Biological target: C-C chemokine receptor type 5 (Homo sapiens, UniProt P51681)
Sequence (P51681 whole entry): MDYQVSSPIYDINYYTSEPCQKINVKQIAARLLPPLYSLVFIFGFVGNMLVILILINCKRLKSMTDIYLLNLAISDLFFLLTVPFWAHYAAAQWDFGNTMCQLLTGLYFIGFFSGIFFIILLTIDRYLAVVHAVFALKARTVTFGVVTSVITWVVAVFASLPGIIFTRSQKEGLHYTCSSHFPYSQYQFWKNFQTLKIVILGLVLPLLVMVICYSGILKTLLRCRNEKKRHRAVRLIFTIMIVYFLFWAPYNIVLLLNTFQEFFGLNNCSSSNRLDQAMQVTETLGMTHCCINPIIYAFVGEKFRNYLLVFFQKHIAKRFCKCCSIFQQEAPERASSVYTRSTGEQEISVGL
Test: Displacement of [125I]-MIP-1 alpha from human C-C chemokine receptor type 5 expressed on CHO cell membranes
pIC50: −log10 of the molar value.
Rule: Satisfied for pIC50 not less than 9, Not satisfied for anything less.

As a guide, the following entries are already answered.
State whether the measured pIC50 reaches 9, counting equality as reaching it, for "O=C(O)[C@@H](CC1CCC1)N1C[C@H](CN2CCC(c3cn4cccnc4n3)CC2)[C@@H](c2ccccc2)C1"
Not satisfied

State whether the measured pIC50 reaches 9, counting equality as reaching it, for "O=C(O)[C@@H](CC1CCC1)N1C[C@H](CN2CCC(c3cnc4ncccn34)CC2)[C@@H](c2cccc(F)c2)C1"
Not satisfied

Others:
State whether the measured pIC50 reaches 9, counting equality as reaching it, for "O=C(O)[C@@H](CC1CCC1)N1C[C@H](CN2CCC(c3cnc4ccc(F)cn34)CC2)[C@@H](c2cccc(F)c2)C1"
Satisfied

State whether the measured pIC50 reaches 9, counting equality as reaching it, for "O=C(O)[C@@H](C1CCCCC1)N1C[C@H](CN2CCC(n3nnc4ccccc43)CC2)[C@@H](c2ccccc2)C1"
Not satisfied

State whether the measured pIC50 reaches 9, counting equality as reaching it, for "CCc1ccn2c(C3CCN(C[C@H]4CN([C@H](CC5CCC5)C(=O)O)C[C@@H]4c4cccc(F)c4)CC3)cnc2c1"
Satisfied

State whether the measured pIC50 reaches 9, counting equality as reaching it, for "O=C(O)[C@@H](C1CCCCC1)N1C[C@H](CN2CCC(c3c[nH]c4ccccc34)CC2)[C@@H](c2ccccc2)C1"
Not satisfied

State whether the measured pIC50 reaches 9, counting equality as reaching it, for "O=C(O)[C@@H](CC1CCC1)N1C[C@H](CN2CCC(c3cnc4ccccn34)CC2)[C@@H](c2cccc(F)c2)C1"
Satisfied

State whether the measured pIC50 reaches 9, counting equality as reaching it, for "O=C(O)[C@@H](CC1CCC1)N1C[C@H](CN2CCC(c3cn4ccncc4n3)CC2)[C@@H](c2cccc(F)c2)C1"
Not satisfied

State whether the measured pIC50 reaches 9, counting equality as reaching it, for "O=C(O)[C@@H](CC1CCC1)N1C[C@H](CN2CCC(c3cnc4c(Cl)cc(Cl)cn34)CC2)[C@@H](c2cccc(F)c2)C1"
Satisfied

State whether the measured pIC50 reaches 9, counting equality as reaching it, for "O=C(O)[C@@H](CC1CCC1)N1C[C@H](CN2CCC(c3cn4ccccc4n3)CC2)[C@@H](c2cccc(F)c2)C1"
Not satisfied

State whether the measured pIC50 reaches 9, counting equality as reaching it, for "O=C(O)[C@@H](CC1CCC1)N1C[C@H](CN2CCC(c3cnc4cccnn34)CC2)[C@@H](c2cccc(F)c2)C1"
Not satisfied

State whether the measured pIC50 reaches 9, counting equality as reaching it, for "Cc1cc(C)n2ncc(C3CCN(C[C@H]4CN([C@H](CC5CCC5)C(=O)O)C[C@@H]4c4cccc(F)c4)CC3)c2n1"
Not satisfied
